tested on: Rattus norvegicus; assay: Antiepileptic activity in Wistar rat assessed as GABA level in medulla oblangata per 100 mg at 100 mg/kg ip after 2 hrs (reference value: 31.86 +/- 4.65 ug); format: functional, Medulla oblongata; conditions: route intraperitoneal
Would you mind telling me the reported Activity of each entry?
Return type: number; implicit unit µg.

### Prompt Entry under review: `C=C(C)[C@@H]1CC=C(C)/C(=N/NC(=O)Nc2nnc(-c3ccc(O)cc3)o2)C1` . Reported Activity?
### Response 43.48

### Prompt Okay, and `CC(C)=CC/C=C(/C)C/C=N/NC(=O)Nc1nnc(-c2ccc(O)cc2)o1` ?
### Response 34.42

### Prompt Same lookup for `C=C(C)[C@@H]1CC=C(C)/C(=N/NC(=O)Nc2nnc(-c3ccc(F)cc3)o2)C1` , please.
### Response 42.4

### Prompt Note, next up: `C=C(C)[C@@H]1CC=C(C)/C(=N/NC(=O)Nc2nnc(-c3ccc([N+](=O)[O-])cc3)o2)C1`
### Response 48.59

### Prompt Next compound: `CC(C)=CC/C=C(/C)C/C=N/NC(=O)Nc1nnc(-c2ccc([N+](=O)[O-])cc2)o1`
### Response 36.72
